target: anthrax protective antigen (PA) (Bacillus anthracis, UniProt P13423 30-764); assay: legend of FIG. 29A: VHHs identified that bind each target as indicated
Sequence (P13423 30-764 limits assumed): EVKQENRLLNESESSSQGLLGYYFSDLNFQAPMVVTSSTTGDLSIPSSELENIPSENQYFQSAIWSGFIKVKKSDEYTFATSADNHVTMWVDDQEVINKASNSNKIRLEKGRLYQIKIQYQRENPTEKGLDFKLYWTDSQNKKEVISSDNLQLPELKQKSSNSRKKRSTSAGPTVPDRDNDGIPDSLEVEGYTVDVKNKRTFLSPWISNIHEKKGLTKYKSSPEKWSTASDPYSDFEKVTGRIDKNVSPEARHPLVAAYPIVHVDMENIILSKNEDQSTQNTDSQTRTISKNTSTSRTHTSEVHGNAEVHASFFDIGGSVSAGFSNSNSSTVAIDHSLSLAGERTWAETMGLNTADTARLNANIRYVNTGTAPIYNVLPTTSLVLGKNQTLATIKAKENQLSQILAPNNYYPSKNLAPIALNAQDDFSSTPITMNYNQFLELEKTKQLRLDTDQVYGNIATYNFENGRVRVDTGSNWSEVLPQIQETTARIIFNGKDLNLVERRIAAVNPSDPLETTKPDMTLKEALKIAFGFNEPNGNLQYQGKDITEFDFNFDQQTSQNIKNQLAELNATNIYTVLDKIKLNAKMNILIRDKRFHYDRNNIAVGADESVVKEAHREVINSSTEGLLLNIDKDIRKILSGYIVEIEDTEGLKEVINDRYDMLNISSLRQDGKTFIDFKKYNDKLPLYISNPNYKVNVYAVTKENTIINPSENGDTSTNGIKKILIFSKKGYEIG
REPORTED METRIC: binding result

-- ask Identify measured binding result associated with JHD-B6 (VHH) VHH: QVQLVESGGGLVQPGGSLRLSCAASGSSFSRYAMRWYRQAPGKQRELVANINSRGTSNYADSVKGRFTISRDNAKNTVYLQMNSLKPEDTAVYYCNAEWLGRSEPSWGQGTQVTVSS
-- reply binds

-- ask Identify measured binding result associated with JIJ-B8 (VHH) VHH: QVQLVESGGGLVQPGGSLSVSCAASGSIARPGAMAWYRQAPGKERELVASITPGGLTNYADSVTGRFTISRDNAKRTVYLQMNSLQPEDTAVYYCHARIIPLGLGSEYRDHWGQGTQVTVSS
-- reply binds

-- ask Identify measured binding result associated with JIJ-E9 (VHH) VHH: QVQLVETGGLVQPGGSLRLSCAASRSTTATIYSMNWYRQAPGKQRELVAGMTSDGQTNYATSVKGRFTISRDNAKNTVYLLMNSLKLEDTAVYYCYVKPWRLQGWDYWGQGTQVTVSS
-- reply binds

-- ask Identify measured binding result associated with JIJ-F11 (VHH) VHH: QVQLVESGGGLVQPGGSLRLSCAAPESIVNSRTMAWYRQAPGKQRERVATITTAGSPNYADSVKGRFAISRDNAKNTVYLQMNSLKPEDTAVYYCNTLLSTLPYGQGTQVTVSS
-- reply binds
